target: p97-Myc; assay: p97-Myc co-IP, 293 cells, MudPIT MS
Sequence (Q01853 2-806): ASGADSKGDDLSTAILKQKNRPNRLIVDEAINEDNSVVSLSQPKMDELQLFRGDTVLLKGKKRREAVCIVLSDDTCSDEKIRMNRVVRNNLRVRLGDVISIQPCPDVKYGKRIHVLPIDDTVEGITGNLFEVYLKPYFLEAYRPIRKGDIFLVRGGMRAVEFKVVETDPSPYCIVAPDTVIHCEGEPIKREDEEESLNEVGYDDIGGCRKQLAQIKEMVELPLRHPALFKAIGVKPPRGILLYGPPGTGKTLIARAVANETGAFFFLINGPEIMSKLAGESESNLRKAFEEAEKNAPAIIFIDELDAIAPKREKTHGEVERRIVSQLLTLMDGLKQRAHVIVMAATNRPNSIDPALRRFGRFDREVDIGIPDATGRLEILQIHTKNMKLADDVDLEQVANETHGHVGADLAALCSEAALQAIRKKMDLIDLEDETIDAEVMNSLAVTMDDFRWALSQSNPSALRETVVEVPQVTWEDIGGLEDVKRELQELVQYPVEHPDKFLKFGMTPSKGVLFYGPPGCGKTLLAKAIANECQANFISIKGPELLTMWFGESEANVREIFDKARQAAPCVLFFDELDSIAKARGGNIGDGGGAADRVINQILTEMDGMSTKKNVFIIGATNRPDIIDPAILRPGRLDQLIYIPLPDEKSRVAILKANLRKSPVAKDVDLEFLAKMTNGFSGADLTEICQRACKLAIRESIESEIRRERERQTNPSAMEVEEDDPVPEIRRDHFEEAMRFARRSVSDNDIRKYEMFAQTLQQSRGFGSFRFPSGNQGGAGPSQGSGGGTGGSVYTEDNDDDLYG
Readout Kind: sequence coverage (%)
Lab book: enter the figure in %, no units written.

In plain terms, endogenous UBXD4 (protein, human, UniProt P68543 1-259, looked up) MKDVDNLKSIKEEWVCETGSDNQPLGNNQQSNCEYFVDSLFEEAQKVSSKCVSPAEQKKQVDVNIKLWKNGFTVNDDFRSYSDGASQQFLNSIKKGELPSELQGIFDKEEVDVKVEDKKNEICLSTKPVFQPFSGQGHRLGSATPKIVSKAKNIEVENKNNLSAVPLNNLEPITNIQIWLANGKRIVQKFNITHRVSHIKDFIEKYQGSQRSPPFSLATALPVLRLLDETLTLEEADLQNAVIIQRLQKTASFRELSEH has a documented sequence coverage of 19.3

Value of sequence coverage reported for the binder endogenous p37 (protein, human, UniProt Q14CS0 2-331, looked up) AEGGGPEPGEQERRSSGPRPPSARDLQLALAELYEDEVKCKSSKSNRPKATVFKSPRTPPQRFYSSEHEYSGLNIVRPSTGKIVNELFKEAREHGAVPLNEATRASGDDKSKSFTGGGYRLGSSFCKRSEYIYGENQLQDVQILLKLWSNGFSLDDGELRPYNEPTNAQFLESVKRGEIPLELQRLVHGGQVNLDMEDHQDQEYIKPRLRFKAFSGEGQKLGSLTPEIVSTPSSPEEEDKSILNAVVLIDDSVPTTKIQIRLADGSRLIQRFNSTHRILDVRNFIVQSRPEFAALDFILVTSFPNKELTDESLTLLEADILNTVLLQQLK is 32.3

The reported value for endogenous p47 (protein, human, UniProt Q9UNZ2 1-370, looked up) MAAERQEALREFVAVTGAEEDRARFFLESAGWDLQIALASFYEDGGDEDIVTISQATPSSVSRGTAPSDNRVTSFRDLIHDQDEDEEEEEGQRFYAGGSERSGQQIVGPPRKKSPNELVDDLFKGAKEHGAVAVERVTKSPGETSKPRPFAGGGYRLGAAPEEESAYVAGEKRQHSSQDVHVVLKLWKSGFSLDNGELRSYQDPSNAQFLESIRRGEVPAELRRLAHGGQVNLDMEDHRDEDFVKPKGAFKAFTGEGQKLGSTAPQVLSTSSPAQQAENEAKASSSILIDESEPTTNIQIRLADGGRLVQKFNHSHRISDIRLFIVDARPAMAATSFILMTTFPNKELADESQTLKEANLLNAVIVQRLT in terms of sequence coverage is 52.2

Sample endogenous SAKS1 (protein, human, UniProt Q04323 2-297, looked up) AELTALESLIEMGFPRGRAEKALALTGNQGIEAAMDWLMEHEDDPDVDEPLETPLGHILGREPTSSEQGGLEGSGSAAGEGKPALSEEERQEQTKRMLELVAQKQREREEREEREALERERQRRRQGQELSAARQRLQEDEMRRAAEERRREKAEELAARQRVREKIERDKAERAKKYGGSVGSQPPPVAPEPGPVPSSPSQEPPTKREYDQCRIQVRLPDGTSLTQTFRAREQLAAVRLYVELHRGEELGGGQDPVQLLSGFPRRAFSEADMERPLQELGLVPSAVLIVAKKCPS ; sequence coverage observed: 19.5
